System: Mv4-11 cells
method-description: Inhibition of the proliferation of Mv4-11 cells (CCK8)
Type: cell-based
measurement-setup: Homo sapiens, MV4-11, 48 h, Mv4-11 cell proliferation, CCK8 OD450
pIC50: −log10 of the molar value.
attribute-measured: pIC50

Record excerpt, results attached:
[[record]]
compound = "CC(=O)N[C@@H]1CCC[C@H](C(=O)Nc2cc(-c3cc(C(N)=O)n4c3CC(C)(C)C4)c(F)cn2)C1"
value_observed = 8.89

[[record]]
compound = "CC(=O)N1CC[C@@]2(CC[C@H](C(=O)Nc3cc(-c4cnn5c4CC(C)(C)C5)c(Cl)cn3)C2)C1 (single isomer, unassigned)"
value_observed = 8.85

[[record]]
compound = "CC1(C)Cc2c(-c3cc(NC(=O)[C@@H]4CCC[C@@H](c5cccnc5)C4)ncc3Cl)cnn2C1 (single isomer, unassigned)"
value_observed = 9.30

[[record]]
compound = "CNC(=O)C1C[C@@H]2CC(C(=O)Nc3cc(-c4cc(C(N)=O)n5c4CC(C)(C)C5)c(Cl)cn3)C[C@@H]2C1 (single isomer, unassigned)"
value_observed = 8.39


1: CC1(C)Cc2c(-c3cc(NC(=O)[C@H]4CCC[C@@H](c5ccncc5)C4)ncc3Cl)cnn2C1 (single isomer, unassigned)
2: CC1(C)Cc2c(-c3cc(NC(=O)[C@H]4CCC[C@H](c5cccnc5)C4)ncc3Cl)cnn2C1 (single isomer, unassigned)
Exam item: Smaller pIC50 value, 1 vs 2 ? Answer format: the label of the selected item.
Marked response: 2
(2: 6.45, 1: 8.20)

---

System: Mv4-11 cells
method-description: Inhibition of the proliferation of Mv4-11 cells (CCK8)
Assay type: cell-based
measurement-setup: Homo sapiens, MV4-11, 48 h, Mv4-11 cell proliferation, CCK8 OD450
pIC50: −log10 of the molar value.
attribute-measured: pIC50

A: CC(=O)N[C@@H]1CCC[C@H](C(=O)Nc2cc(-c3cc(C(N)=O)n4c3CC(C)(C)C4)c(Cl)cn2)C1 [Compound 2]
B: CC(=O)N[C@H]1C[C@@H]2C[C@@H](C(=O)Nc3cc(-c4cc(C(N)=O)n5c4CC(C)(C)C5)c(Cl)cn3)C[C@@H]2C1 (single isomer, unassigned) [Compound 24-1]
Exam item: Choose between A and B : whose measured pIC50 value is numerically larger? Answer format: the label of the selected item.
Marked response: B

P: CC(=O)N[C@@H]1C[C@@H]2C[C@H](C(=O)Nc3cc(-c4cc(C#N)n5c4CC(C)(C)C5)c(Cl)cn3)C[C@@H]2C1 (single isomer, unassigned) [Compound 14-2-2]
Q: CC(=O)N[C@@H]1C[C@@H]2C[C@H](C(=O)Nc3cc(-c4cc(C(N)=O)n5c4CC(C)(C)C5)c(F)cn3)C[C@@H]2C1 [Compound 34-2]
R: CC1(C)Cc2c(-c3cc(NC(=O)[C@@H]4CCC[C@H](c5ccncc5)C4)ncc3Cl)cnn2C1 (single isomer, unassigned) [Compound 21-2]
Exam item: Ranking field: pIC50; order: falling. A ranking is expressed here by listing the labels in the requested order.
Marked response: Q, R, P

I: CC1(C)Cc2c(-c3cc(NC(=O)[C@H]4CCC[C@H](c5ccncc5)C4)ncc3Cl)cnn2C1 (single isomer, unassigned) [Compound 21-1]
II: C[C@H](N)C(=O)N1C[C@H]2CC(C(=O)Nc3cc(-c4cnn5c4CC(C)(C)C5)c(Cl)cn3)C[C@H]2C1 (stereo partly drawn) [Compound 5]
III: CC(=O)N[C@@H]1CCC[C@H](C(=O)Nc2cc(-c3cc(C(N)=O)n4c3CC(C)(C)C4)ccn2)C1 [Compound 12]
Exam item: Ranking field: pIC50; order: falling. A ranking is expressed here by listing the labels in the requested order.
Marked response: II, III, I

P: CC(=O)N1CC[C@]2(CC[C@H](C(=O)Nc3cc(-c4cnn5c4CC(C)(C)C5)c(Cl)cn3)C2)C1 (single isomer, unassigned) [Compound 19-2]
Q: CC(=O)N[C@@H]1CCC[C@H](C(=O)Nc2cc(-c3cc(C(N)=O)c4n3CC(C)(C)C4)c(Cl)cn2)C1 [Compound 17]
Exam item: Choose between P and Q : whose measured pIC50 value is numerically larger? Answer format: the label of the selected item.
Marked response: Q
